Source listed as ChEMBL document CHEMBL5727106.

// values below are reported EC50
Target Entity: G-protein coupled bile acid receptor 1 (Mus musculus)
Sequence (Q80SS6 whole entry): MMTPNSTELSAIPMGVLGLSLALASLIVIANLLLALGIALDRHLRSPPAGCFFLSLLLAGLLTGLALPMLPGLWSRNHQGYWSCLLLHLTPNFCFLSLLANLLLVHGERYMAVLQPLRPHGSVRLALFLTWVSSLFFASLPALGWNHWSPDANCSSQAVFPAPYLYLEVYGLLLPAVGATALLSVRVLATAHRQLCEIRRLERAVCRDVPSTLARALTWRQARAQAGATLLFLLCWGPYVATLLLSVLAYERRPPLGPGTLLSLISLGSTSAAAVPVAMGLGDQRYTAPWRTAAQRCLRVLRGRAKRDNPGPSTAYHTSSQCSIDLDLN
Assay Name: TGR5/CRE Luciferase Assay: In the following tables TGR5 activation by compounds and subsequent increase in intracellular cAMP were evaluated using a luciferase reporter gene assay. Human embryonic kidney (HEK) 293 cells were transiently co-transfected with pCMV tag4b-TGR5 h (to follow hTGR5 activation) or pCMV AC6-TGR5m (to follow mTGR5 activation) expression plasmids and the pCRE TA-Luciferase reporter plasmid using the JET PEI reagent (Polyplus transfection). Transfected cells were seeded in 96-well plates and incubated overnight with the test compounds at increasing concentrations tested in duplicate. Lithocolic acid (LCA) at 10 μM was used as a positive reference compound. The cAMP-dependent luciferase expression was followed using the BrightGlo reagent according to the manufacturer (Promega) instructions. Luminescence was read with a Mithras plate reader (Berthold). Data were expressed as percentage of the 10 μM LCA value and EC50 values were calculated using XL fit 5 software or GraphPad Prism 5. Concentration-response curves were fitted by a nonlinear regression analysis to a 4 parameter logistic equation.

COCCOCCOCCOCCOCCOCCOCCOCCOCCOCCOc1cc(F)c(CSc2ncc(N(C)c3ccc(OC)c(OC)c3)n2-c2ccc(F)cc2)c(F)c1 ... 29 nM
COCCOCCOCCOCCOCCOCCOCCOCCOCCOc1cc(F)c(CSc2ncc(N(C)c3ccc(OC)c(OC)c3)n2-c2ccc(F)cc2)c(F)c1 ... 18 nM
COCCOCCOCCOCCOCCOCCOCCOCCOCCOCCOCCOCCOCCOCCOCCOCCOc1cc(F)c(CSc2ncc(N(C)c3ccc(OC)c(OC)c3)n2-c2ccc(F)c(OC)c2)c(F)c1 ... 26 nM

Now look at this entry.
Query: Tell me reported EC50 for `COCCOCCOCCOCCOCCOCCOCCOCCOCCOCCOCCOCCOCCOCCOCCOCCOCCOCCOCCOCCOCCOCCOCCOCCOCCOCCOCCOCCOCCOCCOCCOCCOCCOCCOCCOCCOCCOc1cc(F)c(CSc2ncc(N(C)c3ccc(OC)c(OC)c3)n2-c2ccc(F)cc2)c(F)c1` , tested with G-protein coupled bile acid receptor 1 (Mus musculus).
Result: 68 nM
